B1: glmS ribozyme (parent)
chain: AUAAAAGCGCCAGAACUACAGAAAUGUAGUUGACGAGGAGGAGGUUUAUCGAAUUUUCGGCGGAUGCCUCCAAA

Variants of: B1
experimental.details: self-cleavage kobs at 640 uM GlcN6P; higher = faster cleavage; RNA array
test.context: with glucosamine-6-phosphate
Variants at the floor of the assay were thinned out.
Examples of variants with documented self-cleavage kobs at 640 uM GlcN6P follow.
outcome.measure: self-cleavage kobs at 640 uM GlcN6P

variant.label	reported.value
G40U C50A C67G	< 1e-05 s⁻¹
U31A U69C	0.000515 s⁻¹
G9U G32A G43C	< 1e-05 s⁻¹
C8A A53G G63A	< 1e-05 s⁻¹
C8U C16A	< 1e-05 s⁻¹
C34U U56C	< 1e-05 s⁻¹
C34G A39C U46A	< 1e-05 s⁻¹
G37A G63C	< 1e-05 s⁻¹
C34A A53C	< 1e-05 s⁻¹
A15G A64G	0.0063 s⁻¹
U46A G59U	< 1e-05 s⁻¹
A6U G40C C61U G62C	< 1e-05 s⁻¹
A14G G43C G51U A64G	< 1e-05 s⁻¹
C8G U56A G62U	< 1e-05 s⁻¹
G29A A42G	0.00227 s⁻¹
C10G C11A C16U G38U	< 1e-05 s⁻¹
C70U	0.0095 s⁻¹
U65A G66C	0.000156 s⁻¹
C11U G29U G37C C70A	0.000166 s⁻¹
U65A C71G	0.000124 s⁻¹

Origin of the recorded values: the supplement of paper PMC7125110
